Here the recorded pKd is given for each entry.
# Tested target: T1, EsCas13d, nuclease-dead (Eubacterium siraeum, UniProt B0MS50, R295A;H300A;R849A;H854A)
# T1 sequence: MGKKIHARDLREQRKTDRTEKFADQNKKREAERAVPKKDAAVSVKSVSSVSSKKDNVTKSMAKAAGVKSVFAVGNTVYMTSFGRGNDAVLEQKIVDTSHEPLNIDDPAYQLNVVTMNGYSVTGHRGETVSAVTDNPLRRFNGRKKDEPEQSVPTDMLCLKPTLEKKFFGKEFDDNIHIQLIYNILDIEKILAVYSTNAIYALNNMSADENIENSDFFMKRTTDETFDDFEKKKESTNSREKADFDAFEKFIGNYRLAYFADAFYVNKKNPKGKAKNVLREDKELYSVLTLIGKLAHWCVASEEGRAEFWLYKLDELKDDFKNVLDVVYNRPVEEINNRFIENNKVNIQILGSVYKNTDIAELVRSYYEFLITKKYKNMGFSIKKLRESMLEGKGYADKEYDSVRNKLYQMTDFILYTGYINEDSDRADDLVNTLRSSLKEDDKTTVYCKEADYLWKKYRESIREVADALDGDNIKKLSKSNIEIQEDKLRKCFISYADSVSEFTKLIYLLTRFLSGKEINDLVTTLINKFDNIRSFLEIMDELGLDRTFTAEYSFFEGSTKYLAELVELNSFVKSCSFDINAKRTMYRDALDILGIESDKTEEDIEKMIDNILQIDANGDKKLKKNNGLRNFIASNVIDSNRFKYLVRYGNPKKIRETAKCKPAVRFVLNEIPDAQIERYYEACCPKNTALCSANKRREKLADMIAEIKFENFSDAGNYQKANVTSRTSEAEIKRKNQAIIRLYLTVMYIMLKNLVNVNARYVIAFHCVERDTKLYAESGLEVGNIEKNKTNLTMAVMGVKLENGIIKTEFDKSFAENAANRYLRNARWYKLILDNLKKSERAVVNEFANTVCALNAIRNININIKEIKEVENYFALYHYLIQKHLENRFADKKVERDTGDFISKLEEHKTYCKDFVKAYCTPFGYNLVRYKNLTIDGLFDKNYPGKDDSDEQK
# Assay text: crRNA (strand 1, pre-loaded); Mg2+; 40 mM Tris-HCl pH 7.5, 150 mM NaCl, 6 mM MgCl2, 1 mM DTT, 0.1% Tween-20, 0.2 mg/ml BSA; 25 C; 10 min per concentration, then washed
# Condition summary: tags: His6-TwinStrep-SUMO cleaved; N-terminal SNAP kept (SNAP-Surface 488); label: 3' end held by stalled T7 RNA polymerase
Note: pKd values are expressed as the negative base-10 logarithm of concentration in M.

The following binders have reported results that may help.
target 1 insC 3' of 17,insA 3' of 4 (mixed) RNA 1: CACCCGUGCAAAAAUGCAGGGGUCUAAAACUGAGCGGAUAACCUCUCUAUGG RNA 2: GGGAAUGGAUCCACAUCUACGAAUUCGUACCAUAGCAGAGGUUAUCCGCAUCACCGAGAUCGGAAGAGCACACGU
7.54
target 1 A9U,G13A (mixed) RNA 1: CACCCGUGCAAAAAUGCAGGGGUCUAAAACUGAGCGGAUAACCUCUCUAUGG RNA 2: GGGAAUGGAUCCACAUCUACGAAUUCGUACCAUAGAGAAGUUUUCCGCUCACCGAGAUCGGAAGAGCACACGU
7.89
target 3 insG 3' of 8,insG 3' of 7 (mixed) RNA 1: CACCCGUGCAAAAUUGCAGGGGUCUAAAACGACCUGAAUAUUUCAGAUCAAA RNA 2: GGGAAUGGAUCCACAUCUACGAAUUCGUUUUUGAUCUGAAAUAUGUGCAGGUCUGCAGAUCGGAAGAGCACACGU
7.43
target 1 A9U,A18C (mixed) RNA 1: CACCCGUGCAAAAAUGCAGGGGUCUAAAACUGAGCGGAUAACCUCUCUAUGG RNA 2: GGGAAUGGAUCCACAUCUACGAAUUCGUACCAUCGAGAGGUUUUCCGCUCACCGAGAUCGGAAGAGCACACGU
7.22
target 1 insG 3' of 20,insU 3' of 12 (mixed) RNA 1: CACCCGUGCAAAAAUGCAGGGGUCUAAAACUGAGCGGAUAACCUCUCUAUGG RNA 2: GGGAAUGGAUCCACAUCUACGAAUUCGUACCAGUAGAGAGGUUUAUCCGCUCACCGAGAUCGGAAGAGCACACGU
7.60
target 1 MT 5'PFS GGA 3'PFS GAG (mixed) RNA 1: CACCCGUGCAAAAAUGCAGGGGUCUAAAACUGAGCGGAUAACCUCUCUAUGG RNA 2: GGGAAUGGAUCCACAUCUACGAAUUCGGACCAUAGAGAGGUUAUCCGCUCAGAGAGAUCGGAAGAGCACACGU
7.72

Please look at the following binder next.
Sample target 2 MT 5'PFS UUU 3'PFS AUC (mixed) RNA 1: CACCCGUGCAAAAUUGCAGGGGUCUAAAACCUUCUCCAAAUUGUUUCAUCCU RNA 2: GGGAAUGGAUCCACAUCUACGAAUUCUUUAGGAUGAAACAAUUUGGAGAAGAUCAGAUCGGAAGAGCACACGU ; pKd observed: 8.16
